The origin of these recorded values is patent US12324845B2.

target: human norepinephrine transporter (Homo sapiens, UniProt P23975); construct: purchased Perkin-Elmer; host or cells: MDCK cells (membrane preparation); assay: Norepinephrine Transporter Binding Assay ([3H]desipramine displacement, MDCK cell membranes); settings: MDCK cell membrane preparation expressing human NET; [3H]desipramine 2 nM; 2 h on ice; triplicate
Sequence (P23975 whole entry): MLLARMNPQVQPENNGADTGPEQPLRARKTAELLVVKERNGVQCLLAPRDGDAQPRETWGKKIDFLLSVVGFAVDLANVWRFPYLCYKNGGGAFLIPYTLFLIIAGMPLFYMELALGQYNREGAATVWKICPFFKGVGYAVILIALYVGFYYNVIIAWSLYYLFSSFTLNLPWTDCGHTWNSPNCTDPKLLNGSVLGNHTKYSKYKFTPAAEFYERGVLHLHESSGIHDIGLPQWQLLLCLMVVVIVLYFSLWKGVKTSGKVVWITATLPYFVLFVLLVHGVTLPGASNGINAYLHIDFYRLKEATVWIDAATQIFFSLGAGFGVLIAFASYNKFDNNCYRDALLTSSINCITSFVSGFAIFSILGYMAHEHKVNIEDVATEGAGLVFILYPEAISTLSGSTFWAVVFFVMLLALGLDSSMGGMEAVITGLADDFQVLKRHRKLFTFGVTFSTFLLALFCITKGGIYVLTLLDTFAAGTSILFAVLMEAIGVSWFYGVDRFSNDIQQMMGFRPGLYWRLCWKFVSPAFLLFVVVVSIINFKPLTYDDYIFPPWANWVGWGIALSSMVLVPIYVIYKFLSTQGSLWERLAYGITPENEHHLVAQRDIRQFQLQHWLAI
// 0 (no) strictly below 20 µM in NET Affinity; 1 (yes) otherwise

| molecule | subject.of.test | class |
| --- | --- | --- |
| Cl.N=C(N)N/C=C/c1ccc(OCCF)cc1 [Example 5] | human norepinephrine transporter (Homo sapiens, UniProt P23975) | 0 (no) |
| Cl.N=C1NCC(c2ccc(OCCF)cc2)N1 (centres unmarked) [Example 4] | human norepinephrine transporter (Homo sapiens, UniProt P23975) | 0 (no) |
| Cl.N=C(N)NCC(O)c1ccc(OCCF)cc1 (centres unmarked) [Example 2] | human norepinephrine transporter (Homo sapiens, UniProt P23975) | 0 (no) |
| Cl.N=C(N)NCc1ccc(OCCF)c(Br)c1 [Example 8] | human norepinephrine transporter (Homo sapiens, UniProt P23975) | 0 (no) |
| Cl.N=C(N)NCCc1ccc(OCCF)cc1 [Example 3] | human norepinephrine transporter (Homo sapiens, UniProt P23975) | 0 (no) |

Next:
API: above_or_equal(metric=NET Affinity, cutoff=20 µM) for item COc1cc(CNC(=N)N)ccc1F.Cl [Example 7] 1 (yes)

* * *

I'd appreciate it if you could supply NET Affinity values for the items below.
biological target: human norepinephrine transporter (Homo sapiens); construct: purchased Perkin-Elmer; host or cells: MDCK cells (membrane preparation); experiment: Norepinephrine Transporter Binding Assay ([3H]desipramine displacement, MDCK cell membranes); conditions: MDCK cell membrane preparation expressing human NET; [3H]desipramine 2 nM; 2 h on ice; triplicate
Structures can show the parent of a compound that is named as a salt.
Give bare numbers, in µM.

Here is how some molecules turned out for NET Affinity.
| molecule | subject.of.test | NET Affinity (µM) |
| --- | --- | --- |
| N=C(N)NCc1cccc(OCCF)c1 [Example 9, Trifluoroacetate] | human norepinephrine transporter (Homo sapiens) | 4.36 |
| Fc1ccc(CNc2ncc[nH]2)cc1C(F)(F)F | human norepinephrine transporter (Homo sapiens) | 17.94 |
| N=C(N)NCCc1ccc(OCCF)c(Cl)c1 [Example 10, Trifluoroacetate] | human norepinephrine transporter (Homo sapiens) | 1.80 |

Hey, can you go through the list below and give me NET Affinity for every item?
1. CC(N)C(O)c1cc(O)c(OCCF)c(O)c1.Cl (centres unmarked)
2. CNC(C)C(O)c1ccc(F)c(O)c1 (centres unmarked) [Example 11, Trifluoroacetate]

102.8
54.85
